Target: T1, mCherry-WIPI3 (UniProt Q5MNZ6 1-344)
T1 construct: 6xHis-TEV-mCherry tag; also called mCherry-tagged WIPI3; source: E. coli Rosetta pLysS, purified; not shown: mCherry, N-terminal, kept
Test: microscopy-based bead assay; GFP-tagged bait on GFP-trap agarose beads, mCherry-tagged prey in solution, confocal imaging
Conditions: both partners purified
readout: binding result

INSERT INTO assay_data (binder, measured_value) VALUES
  ('GFP-tagged ATG13 IDR (191–517 aa) (domain or fragment, UniProt O75143 191-517, looked up, also called full IDR; full-length IDR; source: E. coli Rosetta pLysS, purified; not shown: EGFP, N-terminal, kept) INLAFMSTRQFERTPPIMGIIIDHFVDRPYPSSSPMHPCNYRTAGEDTGVIYPSVEDSQEVCTTSFSTSPPSQLSSSRLSYQPAALGVGSADLAYPVVFAAGLNATHPHQLMVPGKEGGVPLAPNQPVHGTQADQERLATCTPSDRTHCAATPSSSEDTETVSNSSEGRASPHDVLETIFVRKVGAFVNKPINQVTLTSLDIPFAMFAPKNLELEDTDPMVNPPDSPETESPLQGSLHSDGSSGGSSGNTHDDFVMIDFKPAFSKDDILPMDLGTFYREFQNPPQLSSLSIDIGAQSMAEDLDSLPEKLAVHEKNVREFDAFVETLQ', 'binds');
